Where do these numbers come from? They come from paper PMC4837544.

assay: Substrate depletion / intrinsic clearance of PQ and its enantiomers in cryopreserved human hepatocytes; settings: both, human
Readout kind: Km

- COc1cc(NC(C)CCCN)c2ncccc2c1 (racemic) [(±)-PQ, primaquine]: 37 µM

* * *

Experiment: Substrate depletion / intrinsic clearance of PQ and its enantiomers in cryopreserved human hepatocytes
Settings: both, human, hepatocytes, t½ (initial half-life), 20 µM, human hepatocytes, computed from λ
Excerpt: Pooled mixed-gender cryopreserved metabolism-qualified (CYP1A2, 2B6, 2C8, 2C9, 2C19, 2D6, 3A4, UGT2B7, UDP-glucuronosyltransferase) primary human hepatocytes (catalog number 454504) sourced from free donors (who were free of HIV, HBV, HCV and other liver-related diseases) were purchased from Corning Life Sciences (Woburn MA, USA) and stored in liquid nitrogen until use. The cryopreserved hepatocytes were thawed and the cells were suspended in recovery medium (Corning Life Sciences). […]
Readout kind: half-life at 20 µM (min)

* COc1cc(NC(C)CCCN)c2ncccc2c1 (racemic) [(±)-PQ, primaquine] | 122

* * *

assay: Substrate depletion / intrinsic clearance of PQ and its enantiomers in cryopreserved human hepatocytes; settings: both, human
Readout kind: k el at 20 µM (s⁻¹)

• COc1cc(NC(C)CCCN)c2ncccc2c1 (racemic) [(±)-PQ, primaquine] = 9.44e-05

* * *

experiment: Substrate depletion / intrinsic clearance of PQ and its enantiomers in cryopreserved human hepatocytes; conditions: both, human, hepatocytes, t½ (initial half-life), 20 µM, human hepatocytes, computed from λ (ln2/λ)
Readout kind: half-life at 20 µM (h)

- COc1cc(NC(C)CCCN)c2ncccc2c1 (racemic) [(±)-PQ, primaquine]: 2.03
